# Tested on: HT-29
# Test description: Antitumor activity against human HT-29 cells assessed as growth inhibition at 10 uM relative to control
# Type: functional
# Condition notes: read-out: GI
Readout label: inhibition of growth at 10 µM

smiles_notation=N#Cc1c(-c2ccc(Cl)cc2)[nH]c(=S)[nH]c1=O result="< 1%"
smiles_notation=N#Cc1c(-c2ccc(Cl)cc2)nc(N/N=C/c2cccc(F)c2)nc1N1CCOCC1 result=30%
smiles_notation=Cc1cc(C)n(-c2nc(-c3ccc(Cl)cc3)c(C#N)c(N3CCOCC3)n2)n1 result="< 1%"
smiles_notation=N#Cc1c(-c2ccc(Cl)cc2)nc(N2NC(=O)CC2=N)nc1N1CCOCC1 result="< 1%"
smiles_notation=N#Cc1c(-c2ccc(Cl)cc2)nc(NN2C(=O)CCC2=O)nc1N1CCOCC1 result="< 1%"

The recorded inhibition of growth at 10 µM for entry "N#Cc1c(-c2ccc(Cl)cc2)nc(N/N=C2/C(=O)Nc3ccccc32)nc1N1CCOCC1" equals < 1%

The recorded inhibition of growth at 10 µM for entry "N#Cc1c(-c2ccc(Cl)cc2)nc(NN)nc1N1CCOCC1" equals < 1%

---

In this section we review reported inhibition of growth at 10 µM values for a set of compounds.
# Tested on: HL-60
# Test description: Antitumor activity against human HL-60 cells assessed as growth inhibition at 10 uM relative to control
# Format: functional
# Condition notes: read-out: GI

Below are worked cases with known answers.
smiles_notation=N#Cc1c(-c2ccc(Cl)cc2)nc(NN2C(=O)c3ccccc3C2=O)nc1N1CCOCC1 result="< 1%"
smiles_notation=N#Cc1c(-c2ccc(Cl)cc2)nc(NN)nc1N1CCOCC1 result="< 1%"
smiles_notation=N#Cc1c(-c2ccc(Cl)cc2)nc(N/N=C2/C(=O)Nc3ccc(Cl)cc32)nc1N1CCOCC1 result="< 1%"

Moving on to the next compound.
The recorded inhibition of growth at 10 µM for entry "N#Cc1c(-c2ccc(Cl)cc2)[nH]c(=S)[nH]c1=O" equals < 1%

---

# Test system: T47D
# Test description: Antitumor activity against human T47D cells assessed as growth inhibition at 10 uM relative to control
# Assay type: functional
# Condition notes: read-out: GI
In this section we review reported inhibition of growth at 10 µM values for a set of compounds.
Kindly provide the numeric value in % only, without the unit symbol.

Below are worked cases with known answers.
smiles_notation=N#Cc1c(-c2ccc(Cl)cc2)nc(N/N=C/c2cccc(F)c2)nc1N1CCOCC1 target_entity=T47D readout_label="inhibition of growth at 10 µM" measured_number=11.2
smiles_notation=N#Cc1c(-c2ccc(Cl)cc2)nc(N/N=C/c2ccco2)nc1N1CCOCC1 target_entity=T47D readout_label="inhibition of growth at 10 µM" measured_number=76.8
smiles_notation=N#Cc1c(-c2ccc(Cl)cc2)nc(N/N=C/c2cccc(Cl)c2)nc1N1CCOCC1 target_entity=T47D readout_label="inhibition of growth at 10 µM" measured_number=23.4

The recorded inhibition of growth at 10 µM for entry "CSc1nc(-c2ccc(Cl)cc2)c(C#N)c(N2CCOCC2)n1" equals 33

The recorded inhibition of growth at 10 µM for entry "N#Cc1c(-c2ccc(Cl)cc2)nc(NN)nc1N1CCOCC1" equals 17.4

---

# System: TK-10
# Test description: Antitumor activity against human TK-10 cells assessed as growth inhibition at 10 uM relative to control
# Assay type: functional
# Condition notes: read-out: GI
In this section we review reported inhibition of growth at 10 µM values for a set of compounds.

Below are worked cases with known answers.
smiles_notation=Cc1cc(C)n(-c2nc(-c3ccc(Cl)cc3)c(C#N)c(N3CCOCC3)n2)n1 readout_label="inhibition of growth at 10 µM" result="< 1%"
smiles_notation=CSc1nc(O)c(C#N)c(-c2ccc(Cl)cc2)n1 readout_label="inhibition of growth at 10 µM" result="< 1%"
smiles_notation=N#Cc1c(-c2ccc(Cl)cc2)nc(NN2C(=O)CCC2=O)nc1N1CCOCC1 readout_label="inhibition of growth at 10 µM" result="< 1%"
smiles_notation=N#Cc1c(-c2ccc(Cl)cc2)nc(N/N=C/c2cccc([N+](=O)[O-])c2)nc1N1CCOCC1 readout_label="inhibition of growth at 10 µM" result=25.6%

Moving on to the next compound.
The recorded inhibition of growth at 10 µM for entry "N#Cc1c(-c2ccc(Cl)cc2)nc(N/N=C/c2cccc(O)c2)nc1N1CCOCC1" equals 21%

---

In this section we review reported inhibition of growth at 10 µM values for a set of molecules.
# System: K562
# Test description: Antitumor activity against human K562 cells assessed as growth inhibition at 10 uM relative to control
# Format: functional
# Condition notes: read-out: GI
Kindly provide the numeric value in % only, without the unit symbol.

Below are worked cases with known answers.
smiles_notation=CSc1nc(-c2ccc(Cl)cc2)c(C#N)c(N2CCOCC2)n1 output_unit=% measured_number=19.9
smiles_notation=COc1cc(/C=N/Nc2nc(-c3ccc(Cl)cc3)c(C#N)c(N3CCOCC3)n2)cc(OC)c1OC output_unit=% measured_number=51.2
smiles_notation=N#Cc1c(-c2ccc(Cl)cc2)nc(N/N=C/c2ccc[nH]2)nc1N1CCOCC1 output_unit=% measured_number=55.8
smiles_notation=N#Cc1c(-c2ccc(Cl)cc2)nc(N/N=C/c2cccc(F)c2)nc1N1CCOCC1 output_unit=% measured_number=15
smiles_notation=N#Cc1c(-c2ccc(Cl)cc2)nc(N/N=C/c2cccc(Cl)c2)nc1N1CCOCC1 output_unit=% measured_number=64.9
smiles_notation=N#Cc1c(-c2ccc(Cl)cc2)nc(N/N=C/c2cccc([N+](=O)[O-])c2)nc1N1CCOCC1 output_unit=% measured_number=33.6
smiles_notation=N#Cc1c(-c2ccc(Cl)cc2)nc(N/N=C/c2cccc(O)c2)nc1N1CCOCC1 output_unit=% measured_number=54.9
smiles_notation=CSc1nc(Cl)c(C#N)c(-c2ccc(Cl)cc2)n1 output_unit=% measured_number=44.5

Moving on to the next molecule.
The recorded inhibition of growth at 10 µM for entry "N#Cc1c(-c2ccc(Cl)cc2)nc(N/N=C/c2cccc(Br)c2)nc1N1CCOCC1" equals 87.4

---

# Test system: UACC-62
# Test description: Antitumor activity against human UACC-62 cells assessed as growth inhibition at 10 uM relative to control
# Format: functional
# Condition notes: read-out: GI
In this section we review reported inhibition of growth at 10 µM values for a set of compounds.

Below are worked cases with known answers.
smiles_notation=N#Cc1c(-c2ccc(Cl)cc2)nc(N2NC(=O)CC2=N)nc1N1CCOCC1 target_entity=UACC-62 readout_label="inhibition of growth at 10 µM" result=86.2%
smiles_notation=N#Cc1c(-c2ccc(Cl)cc2)nc(NN2C(=O)c3ccccc3C2=O)nc1N1CCOCC1 target_entity=UACC-62 readout_label="inhibition of growth at 10 µM" result="< 1%"
smiles_notation=N#Cc1c(-c2ccc(Cl)cc2)nc(N/N=C2/C(=O)Nc3ccccc32)nc1N1CCOCC1 target_entity=UACC-62 readout_label="inhibition of growth at 10 µM" result="< 1%"

The recorded inhibition of growth at 10 µM for entry "N#Cc1c(-c2ccc(Cl)cc2)nc(N/N=C2/C(=O)Nc3ccc(Cl)cc32)nc1N1CCOCC1" equals < 1%

The recorded inhibition of growth at 10 µM for entry "COc1cc(/C=N/Nc2nc(-c3ccc(Cl)cc3)c(C#N)c(N3CCOCC3)n2)cc(OC)c1OC" equals 31.7%

The recorded inhibition of growth at 10 µM for entry "N#Cc1c(-c2ccc(Cl)cc2)nc(N/N=C/c2cccc(F)c2)nc1N1CCOCC1" equals < 1%

The recorded inhibition of growth at 10 µM for entry "N#Cc1c(-c2ccc(Cl)cc2)nc(NN2C(=O)CCC2=O)nc1N1CCOCC1" equals < 1%

The recorded inhibition of growth at 10 µM for entry "Cc1cc(C)n(-c2nc(-c3ccc(Cl)cc3)c(C#N)c(N3CCOCC3)n2)n1" equals < 1%

The recorded inhibition of growth at 10 µM for entry "N#Cc1c(-c2ccc(Cl)cc2)nc(N/N=C/c2cccc(Br)c2)nc1N1CCOCC1" equals < 1%

---

In this section we review reported inhibition of growth at 10 µM values for a set of compounds.
# Test system: SF-268
# Test description: Antitumor activity against human SF-268 cells assessed as growth inhibition at 10 uM relative to control
# Format: functional
# Condition notes: read-out: GI

Below are worked cases with known answers.
smiles_notation=CSc1nc(O)c(C#N)c(-c2ccc(Cl)cc2)n1 readout_label="inhibition of growth at 10 µM" result="< 1%"
smiles_notation=CSc1nc(-c2ccc(Cl)cc2)c(C#N)c(N2CCOCC2)n1 readout_label="inhibition of growth at 10 µM" result=13.9%
smiles_notation=N#Cc1c(-c2ccc(Cl)cc2)nc(N/N=C2/C(=O)Nc3ccc(Cl)cc32)nc1N1CCOCC1 readout_label="inhibition of growth at 10 µM" result="< 1%"
smiles_notation=N#Cc1c(-c2ccc(Cl)cc2)nc(N/N=C/c2cccc(O)c2)nc1N1CCOCC1 readout_label="inhibition of growth at 10 µM" result=18.1%
smiles_notation=N#Cc1c(-c2ccc(Cl)cc2)nc(N/N=C/c2cccc([N+](=O)[O-])c2)nc1N1CCOCC1 readout_label="inhibition of growth at 10 µM" result=12.3%

The recorded inhibition of growth at 10 µM for entry "N#Cc1c(-c2ccc(Cl)cc2)nc(NN2C(=O)c3ccccc3C2=O)nc1N1CCOCC1" equals < 1%

The recorded inhibition of growth at 10 µM for entry "COc1cc(/C=N/Nc2nc(-c3ccc(Cl)cc3)c(C#N)c(N3CCOCC3)n2)cc(OC)c1OC" equals 17.6%

The recorded inhibition of growth at 10 µM for entry "CSc1nc(Cl)c(C#N)c(-c2ccc(Cl)cc2)n1" equals < 1%

The recorded inhibition of growth at 10 µM for entry "N#Cc1c(-c2ccc(Cl)cc2)nc(N/N=C2/C(=O)Nc3ccccc32)nc1N1CCOCC1" equals < 1%

The recorded inhibition of growth at 10 µM for entry "N#Cc1c(-c2ccc(Cl)cc2)nc(N/N=C/c2ccc[nH]2)nc1N1CCOCC1" equals 53.8%
